Target: Tubulin (Bos taurus, UniProt Q6B856+Q862L2+Q862F3)
Experiment: Tubulin polymerization inhibitory activity using bovine brain tubulin
Format: functional
In this section, each of the compounds is paired with its reported IC50.
reported_endpoint: IC50

{"columns": ["smiles_structure", "data_value"],
 "data": [
  ["COc1ccc(-c2c([Si](C)(C)C)n[nH]c2-c2cc(OC)c(OC)c(OC)c2)cc1N", "> 10 µM"],
  ["COc1ccc(-c2nnc(C)n2-c2cc(OC)c(OC)c(OC)c2)cc1N", "> 10 µM"],
  ["COc1ccc(-c2nnc(O)n2-c2cc(OC)c(OC)c(OC)c2)cc1N", "> 10 µM"]
]}
